Parameter inhibition: see the listing below.
- experimental target: Endonuclease 8-like 2 (Homo sapiens) (UniProt Q969S2);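 note: fluorescence at 594 nm reports NEIL2 cutting and release of a quenched double-stranded DNA oligo substrate, reduced signal read as inhibition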
- Sequence (whole entry): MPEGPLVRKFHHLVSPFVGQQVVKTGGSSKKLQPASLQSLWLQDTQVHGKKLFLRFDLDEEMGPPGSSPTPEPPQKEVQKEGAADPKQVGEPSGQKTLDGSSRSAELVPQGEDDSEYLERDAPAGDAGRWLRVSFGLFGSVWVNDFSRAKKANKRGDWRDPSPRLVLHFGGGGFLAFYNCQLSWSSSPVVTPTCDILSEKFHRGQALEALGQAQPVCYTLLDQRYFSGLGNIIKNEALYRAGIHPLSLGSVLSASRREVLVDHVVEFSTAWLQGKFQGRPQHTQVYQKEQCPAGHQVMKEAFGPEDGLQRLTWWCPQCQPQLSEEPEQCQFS
- conditions used: Compound Concentration 1.0 uM, Hit No
- Description: Inhibition of NEIL2 by quantifying inhibition of NEIL2-mediated cleavage and dissociation of quenched duplex DNA oligonucleotides, measured as fluorescence at 594 nm.
State the answer as a number, implicitly in %.

| smiles input | inhibition [%] |
| --- | --- |
| CN(C)C(=O)Cn1cc(-c2ccc(-c3cncc4ccccc34)cc2)cn1 | -1.92 |
| Cc1ccc(C(=O)Nc2cccc(C(F)(F)F)c2)cc1Nc1nc(-c2cccnc2)nc2c1cnn2C | 3.74 |

query: Could you tell me which inhibition is on file for CCN(CC)CCCCNc1ncc2cc(-c3cc(OC)cc(OC)c3)c(NC(=O)NC(C)(C)C)nc2n1 ?
result: 3.2

query: Could you tell me which inhibition is on file for Cc1c[nH]c2nccc(Oc3c(F)cc(Nc4cc(Cl)nc(N)n4)cc3F)c12 ?
result: 3.69

query: Could you tell me which inhibition is on file for CNC(=O)c1ccc(Nc2ncc(C(F)(F)F)c(NCc3nccnc3N(C)S(C)(=O)=O)n2)cc1 ?
result: -4.88

* * *

- experimental target: Methyl-CpG-binding domain protein 4 (Homo sapiens) (UniProt O95243);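 note: MBD4 activity read as fluorescence at 594 nm from cleavage and release of a quenched duplex DNA oligonucleotide, with APE1 coupled to incise the strand and raise turnover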
- Sequence (O95243 whole entry, the tested form may be a part): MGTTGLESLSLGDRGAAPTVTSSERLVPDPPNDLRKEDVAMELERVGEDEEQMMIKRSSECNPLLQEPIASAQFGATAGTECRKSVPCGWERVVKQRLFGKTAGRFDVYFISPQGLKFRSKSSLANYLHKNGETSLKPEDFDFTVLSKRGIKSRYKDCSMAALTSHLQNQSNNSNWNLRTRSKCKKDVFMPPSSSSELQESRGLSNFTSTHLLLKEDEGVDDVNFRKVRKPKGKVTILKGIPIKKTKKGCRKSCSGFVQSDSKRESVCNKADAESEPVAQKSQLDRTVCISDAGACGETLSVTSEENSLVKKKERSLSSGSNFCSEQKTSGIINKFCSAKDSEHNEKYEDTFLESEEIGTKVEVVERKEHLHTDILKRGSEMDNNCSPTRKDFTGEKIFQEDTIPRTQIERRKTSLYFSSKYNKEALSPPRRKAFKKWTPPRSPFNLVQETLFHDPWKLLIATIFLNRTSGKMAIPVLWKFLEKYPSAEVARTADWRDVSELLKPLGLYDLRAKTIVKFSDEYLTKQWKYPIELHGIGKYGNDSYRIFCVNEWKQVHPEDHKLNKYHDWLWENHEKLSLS
- conditions used: Compound Concentration 10.0 uM, Hit No
- Description: Inhibition of MBD4 by quantifying inhibition of MBD4-mediated cleavage and dissociation of quenched duplex DNA oligonucleotides, measured as fluorescence at 594 nm. To generate a functional strand incision and increase turn-over this assay is coupled to APE1.
Parameter inhibition: see the listing below.
State the answer as a number, implicitly in %.

Field: example entries. Status: answers known.
| compound | metric | unit symbol | recorded value |
| --- | --- | --- | --- |
| CN1CCN(c2cc(-c3ccccc3)nc(N)n2)CC1 | inhibition | % | -3.57 |
| COc1cc(-c2cncc(-c3ccc(N4CCN(C(C)C)CC4)cc3)c2C)cc(F)c1C(N)=O | inhibition | % | 0.764 |
| CC(C)c1cc(Br)c(NC(=O)Nc2cccnc2)c(Br)c1 | inhibition | % | 12.5 |
| COc1ccccc1C(=O)Nc1cccc(NC(=O)c2cccc(C)c2)c1 | inhibition | % | 14.3 |
| CCOC(=O)N[C@@H]1CC[C@@H]2[C@@H](C1)C[C@H]1C(=O)O[C@H](C)[C@H]1[C@H]2/C=C/c1ccc(-c2cccc(F)c2)cn1 | inhibition | % | -1.19 |
| CN(C)c1ncc2cc(-c3ccc(-c4ncccc4F)cc3Cl)c(=O)n(C[C@H]3OC[C@H](N)CO3)c2n1 | inhibition | % | -0.894 |
| O=C(NCCCn1ccnc1)c1cc2nc(-c3ccccc3)cc(-c3ccccc3)n2n1 | inhibition | % | 28.3 |
| Cc1cc(NC(=O)c2cccc(S(F)(F)(F)(F)F)c2)cc(-n2ccn3nc(-c4cccnc4)cc23)c1 | inhibition | % | 4.59 |

query: Could you tell me which inhibition is on file for O=C1NCN(c2ccccc2)C12CCN(CCCOc1ccc(F)cc1)CC2 ?
result: 6.25

query: Could you tell me which inhibition is on file for CCCN(CCc1cccs1)[C@H]1CCc2c(O)cccc2C1 ?
result: 27.8

query: Could you tell me which inhibition is on file for Cc1cc(C)cc(-c2cnc3cc(Cl)c(-c4cccc(O)c4)cc3c2OCCCN)c1 ?
result: 9.27

query: Could you tell me which inhibition is on file for CC1(C)CC(=O)c2c(SCCO)sc(-c3nccs3)c2C1 ?
result: 23.5

query: Could you tell me which inhibition is on file for O=C1NCN(c2ccccc2)C12CCN(CC1COc3ccccc3O1)CC2 (stereo not drawn) ?
result: -3.04

query: Could you tell me which inhibition is on file for COC1(C[S@@+]([O-])c2ccccc2)CCN(CCc2c[nH]c3ccc(F)cc23)CC1 ?
result: 2.25

query: Could you tell me which inhibition is on file for O=C(NCc1ncc(C(F)(F)F)cc1Cl)c1ccc2c(c1)C1(CCS(=O)(=O)CC1)[C@@H](C1CC1)N2S(=O)(=O)c1ccc(F)cc1 ?
result: 54.9

query: Could you tell me which inhibition is on file for CCOC(=O)N1CCC(c2cc(O)n3nc(C)c(-c4ccc(F)cc4)c3n2)CC1 ?
result: 40.6

query: Could you tell me which inhibition is on file for CCOC(=O)C1Cc2ccccc2CN1C(=O)c1ccc(SC)s1 (stereo not drawn) ?
result: 59.4

query: Could you tell me which inhibition is on file for CN(C)C(=O)Cn1cc(-c2nc(C3(c4ccc(-c5cnc(N)nc5)cc4)CC3)no2)cn1 ?
result: 22.8

query: Could you tell me which inhibition is on file for CN(C)c1ccnc2sc3c(=O)n(N4CCCCCC4)cnc3c12 ?
result: -2.87

query: Could you tell me which inhibition is on file for NS(=O)(=O)c1cc(NC(=O)Cc2ccccc2)ccc1Oc1cccc(Cl)c1 ?
result: 54.5

query: Could you tell me which inhibition is on file for CC[C@H](Nc1c(C#N)c(-c2ccc(-c3cccc(C)c3F)cc2)nc2cnccc12)C(=O)O ?
result: 59.4

query: Could you tell me which inhibition is on file for COc1ccc2c(c1)C(C(=O)N(Cc1ccc(N(C)C)cc1)c1ccc(C(C)C)cc1)CCC2 (stereo not drawn) ?
result: 26.8

query: Could you tell me which inhibition is on file for Cn1cc(C(=O)O)c2ccc(N3CCC(OCc4c(-c5c(Cl)cccc5Cl)noc4C4CC4)CC3)cc21 ?
result: 64.1

query: Could you tell me which inhibition is on file for COc1ccccc1/C=N/NC(=O)COc1ccc(Cl)cc1C ?
result: 18.4

query: Could you tell me which inhibition is on file for CCC(=O)N[C@@H]1CC[C@H](C(=O)N(C)c2ccc(-c3nc4ccccc4o3)cc2)C1 ?
result: 54.4

query: Could you tell me which inhibition is on file for CCOC(=O)c1ccc(N2C(=O)C(O)=C(C(=O)c3ccc(OC)cc3)C2c2ccc(F)cc2)cc1 (stereo not drawn) ?
result: 55.1
